For each of the compounds below, state its relative viability.
Test system: NCI-H727
test_method_notes: relative viability (nuclei count vs DMSO), 5 days (fraction); higher = more cells survive
experimental_setup: first compound 6.325 µM
Give bare numbers.

compound	relative viability
Cc1csc(=NC2CCCCC2)n1/N=C/c1ccc(O)c(O)c1O [MIM1] + CS(=O)(=O)N1CCN(Cc2cc3nc(-c4cccc5[nH]ncc45)nc(N4CCOCC4)c3s2)CC1 [Pictilisib] (partner 1 µM)	0.355
Cc1csc(=NC2CCCCC2)n1/N=C/c1ccc(O)c(O)c1O [MIM1] + Cc1cc(Nc2cc(N3CCN(C)CC3)nc(Sc3ccc(NC(=O)C4CC4)cc3)n2)n[nH]1 [Tozasertib] (partner 0.1 µM)	0.574
Cc1csc(=NC2CCCCC2)n1/N=C/c1ccc(O)c(O)c1O [MIM1] + O=C(c1cc(Cc2n[nH]c(=O)c3ccccc23)ccc1F)N1CCN(C(=O)C2CC2)CC1 [Olaparib] (partner 8 µM)	0.748

Form: item Cc1csc(=NC2CCCCC2)n1/N=C/c1ccc(O)c(O)c1O [MIM1] + CC(C)C[C@H](NC(=O)[C@H](Cc1ccccc1)NC(=O)c1cnccn1)B(O)O [Bortezomib] (partner 0.002 µM) ; test system NCI-H727; relative viability: 0.602

---

For each of the compounds below, state its relative viability.
System: HCC-78
test_method_notes: relative viability (nuclei count vs DMSO), 5 days (fraction); higher = more cells survive
experimental_setup: first compound 0.01 µM
Answers are plain numbers.

These recorded examples may help you get a feel for the data.
compound	relative viability
Cc1cn(-c2cc(NC(=O)c3ccc(C)c(Nc4nccc(-c5cccnc5)n4)c3)cc(C(F)(F)F)c2)cn1 [Nilotinib] + CS(=O)(=O)CCNCc1ccc(-c2ccc3ncnc(Nc4ccc(OCc5cccc(F)c5)c(Cl)c4)c3c2)o1 [Lapatinib] (partner 2 µM)	0.779
Cc1cn(-c2cc(NC(=O)c3ccc(C)c(Nc4nccc(-c5cccnc5)n4)c3)cc(C(F)(F)F)c2)cn1 [Nilotinib] + Cc1nc(NC(=O)N2CCC[C@H]2C(N)=O)sc1-c1ccnc(C(C)(C)C(F)(F)F)c1 [Alpelisib] (partner 2 µM)	0.444
Cc1cn(-c2cc(NC(=O)c3ccc(C)c(Nc4nccc(-c5cccnc5)n4)c3)cc(C(F)(F)F)c2)cn1 [Nilotinib] + O=C(CCCCCCC(=O)Nc1ccccc1)NO [Vorinostat] (partner 1 µM)	0.553

Here is another compound to look at.
The value of relative viability measured for the compound Cc1cn(-c2cc(NC(=O)c3ccc(C)c(Nc4nccc(-c5cccnc5)n4)c3)cc(C(F)(F)F)c2)cn1 [Nilotinib] + COc1cc2c(Oc3ccc(NC(=O)C4(C(=O)Nc5ccc(F)cc5)CC4)cc3F)ccnc2cc1OCCCN1CCOCC1 [Foretinib] (partner 0.25 µM) turned out to be 0.719

---

Test system: NCI-H460
test_method_notes: relative viability (nuclei count vs DMSO), 5 days (fraction); higher = more cells survive
experimental_setup: first compound 0.253 µM
parameter_measured: relative viability
Answers are plain numbers.

These recorded examples may help you get a feel for the data.
molecule	reading
Nc1cccc2c1CN(C1CCC(=O)NC1=O)C2=O (configuration not stated) [Lenalidomide] + Nc1ncn([C@H]2C[C@H](O)[C@@H](CO)O2)c(=O)n1 [Decitabine] (partner 2 µM)	0.402
Nc1cccc2c1CN(C1CCC(=O)NC1=O)C2=O (configuration not stated) [Lenalidomide] + O=C(c1cc(Cc2n[nH]c(=O)c3ccccc23)ccc1F)N1CCN(C(=O)C2CC2)CC1 [Olaparib] (partner 8 µM)	0.394
Nc1cccc2c1CN(C1CCC(=O)NC1=O)C2=O (configuration not stated) [Lenalidomide] + CCNC(=O)c1noc(-c2cc(C(C)C)c(O)cc2O)c1-c1ccc(CN2CCOCC2)cc1 [Luminespib] (partner 0.01 µM)	0.0318

Can you give me relative viability for all of these, one by one?
1. Nc1cccc2c1CN(C1CCC(=O)NC1=O)C2=O (configuration not stated) [Lenalidomide] + C[C@@H](Oc1cc(-c2cnn(C3CCNCC3)c2)cnc1N)c1c(Cl)ccc(F)c1Cl [Crizotinib] (partner 1 µM)
2. Nc1cccc2c1CN(C1CCC(=O)NC1=O)C2=O (configuration not stated) [Lenalidomide] + NC(=O)Nc1cc(-c2cccc(F)c2)sc1C(=O)N[C@H]1CCCNC1 [AZD7762] (partner 0.2 µM)
3. Nc1cccc2c1CN(C1CCC(=O)NC1=O)C2=O (configuration not stated) [Lenalidomide] + Cc1cc(Nc2cc(N3CCN(C)CC3)nc(Sc3ccc(NC(=O)C4CC4)cc3)n2)n[nH]1 [Tozasertib] (partner 0.1 µM)

**A:**
1: 0.807; 2: 0.578; 3: 0.393

The value of relative viability measured for the molecule Nc1cccc2c1CN(C1CCC(=O)NC1=O)C2=O (configuration not stated) [Lenalidomide] + Cc1nc(NC(=O)N2CCC[C@H]2C(N)=O)sc1-c1ccnc(C(C)(C)C(F)(F)F)c1 [Alpelisib] (partner 2 µM) turned out to be 0.363
